Tested on: FT3469 (normal neural stem cell line)
run.description: surviving fraction (nuclei count normalised to DMSO); higher = more cells surviving (less toxic)
measurement.context: 333.3 nM; exposure time: 72 h
Where a name gives a salt, the structure may show the parent alone.
Assign class by surviving fraction: not lower than 1 means class 1; lower than 1 means class 0.

[[record]]
compound = "CC(C)C[C@H](NC(=O)CNC(=O)c1cc(Cl)ccc1Cl)B1OC(=O)C(CC(=O)O)(CC(=O)O)O1 [MLN9708]"
assigned_label = "class 0"

[[record]]
compound = "NC1CCN(c2nc3c(cc2F)c(=O)c(C(=O)O)cn3-c2ccc(F)cc2F)C1 (stereo not given) [Tosufloxacin hydrochloride]"
assigned_label = "class 0"

[[record]]
compound = "CNCCCC12CCC(c3ccccc31)c1ccccc12 [Maprotiline hydrochloride]"
assigned_label = "class 0"


Task item: Would you say NCCCP(=O)(O)O [3-Aminopropylphosphonic acid] shows surviving fraction at minimum 1?
Reply: class 1

Task item: Would you say Cc1cccn2c(=O)c(-c3nnn[nH]3)cnc12 [Pemirolast potassium] shows surviving fraction at minimum 1?
Reply: class 1

----------
Tested on: E28 (patient-derived glioblastoma stem cells of classical subtype)
run.description: surviving fraction (nuclei count normalised to DMSO); higher = more cells surviving (less toxic)
measurement.context: 4.1 nM; exposure time: 72 h
Where a name gives a salt, the structure may show the parent alone.
Recorded measurements of surviving fraction, one per entry
Give only the figure.

Past entries and their recorded results:
[[record]]
compound = "C[C@]12CC[C@H](O)C[C@H]1CC[C@@H]1[C@@H]2C[C@@H](O)[C@]2(C)[C@@H](C3=CC(=O)OC3)CC[C@]12O"
test_value = 1.01

[[record]]
compound = "CCN(CC)Cc1ccc(C(=O)N(CCc2ccccc2OC)[C@@H]2CCNC2)cc1"
test_value = 0.904

[[record]]
compound = "CCOC(=O)OC(C)OC(=O)[C@@H]1N2C(=O)[C@@H](NC(=O)[C@H](N)c3ccccc3)[C@H]2SC1(C)C (stereo partly drawn) [Bacampicillin hydrochloride]"
test_value = 0.882

[[record]]
compound = "CC1(C(=O)O)C2CCC(O2)C1(C)C(=O)O (stereo not drawn)"
test_value = 0.901

[[record]]
compound = "Cc1ccc(S(=O)(=O)/C=C/C#N)cc1"
test_value = 1.16


Task item: State its surviving fraction: `O=c1[nH]c(=O)n([C@H]2C[C@H](O)[C@@H](CO)O2)cc1I`
Reply: 1.11

Task item: State its surviving fraction: `COc1cc2c(c(OC)c1OC)-c1ccc(OC)c(=O)cc1[C@@H](NC(C)=O)CC2`
Reply: 0.546

Task item: State its surviving fraction: CC(C)N1CCN(c2ccc(OCC3COC(Cn4cncn4)(c4ccc(Cl)cc4Cl)O3)cc2)CC1 (stereo not drawn)
Reply: 1.15

----------
Test system: FT3469
run.description: phenotypic distance (Euclidean, principal components) from DMSO controls (arbitrary units); higher = stronger morphological change
measurement.context: 12.3 nM; exposure time: 72 h
Counter-ions that a name gives are not always drawn.
quantity: phenotypic distance
Give only the figure.

Past entries and their recorded results:
[[record]]
compound = "C/C(=C\\c1csc(C)n1)[C@@H]1C[C@@H]2O[C@]2(C)CCC[C@H](C)[C@H](O)[C@@H](C)C(=O)C(C)(C)[C@@H](O)CC(=O)N1 [Ixabepilone]"
test_value = 3.28

[[record]]
compound = "CCCCCCCCCCCCCCCC[N+](C)(C)CCN(Cc1ccc(OC)cc1)c1ncccn1 [Thonzonium bromide]"
test_value = 3.16

[[record]]
compound = "CC(C)N1CCN(c2ccc(OCC3COC(Cn4cncn4)(c4ccc(Cl)cc4Cl)O3)cc2)CC1 (configuration not stated)"
test_value = 0.931

[[record]]
compound = "O=c1[nH]c(=O)n([C@H]2C[C@H](O)[C@@H](CO)O2)cc1I"
test_value = 1.15

[[record]]
compound = "CCOC(=O)OC(C)OC1=C(C(=O)Nc2ccccn2)N(C)S(=O)(=O)c2ccccc21 (configuration not stated)"
test_value = 0.959


Task item: State its phenotypic distance: `COc1cc2c(cc1O)CC[C@@H]1[C@@H]2CC[C@]2(C)[C@@H](O)CC[C@@H]12`
Reply: 0.62

Task item: State its phenotypic distance: `COC(=O)Nc1nc2cc(C(=O)c3ccc(F)cc3)ccc2[nH]1`
Reply: 0.843

Task item: State its phenotypic distance: CNCCCC12CCC(c3ccccc31)c1ccccc12 [Maprotiline hydrochloride]
Reply: 0.982

Task item: State its phenotypic distance: Nc1ncn(C2OC(CO)C(O)C2O)c(=O)n1 (configuration not stated)
Reply: 0.612
